Reported IC50 is given for each of the following compounds.
- MEASURED_TARGET: Calpain-2 catalytic subunit (Sus scrofa, UniProt P43367)
- Sequence (P43367 whole entry): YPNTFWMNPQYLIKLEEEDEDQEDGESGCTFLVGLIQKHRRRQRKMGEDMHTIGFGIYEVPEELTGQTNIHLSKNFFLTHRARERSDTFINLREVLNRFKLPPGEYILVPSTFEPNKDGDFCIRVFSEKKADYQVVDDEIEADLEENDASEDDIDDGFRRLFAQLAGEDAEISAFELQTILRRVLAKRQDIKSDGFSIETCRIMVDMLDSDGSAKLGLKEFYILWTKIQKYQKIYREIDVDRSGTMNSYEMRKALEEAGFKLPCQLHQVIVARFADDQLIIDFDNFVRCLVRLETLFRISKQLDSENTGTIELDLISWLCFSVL
- ASSAY_REMARKS: pig calpain II inhibitor potency, dose response, biochemical, fluorogenic peptide substrate (AID 1420)
- Format: functional
Calls of active or inactive are those of the source.

{"MOL_SMILES": "CC(C)C[C@H](NC(=O)c1[nH]cnc1C(=O)NCCCCCNC(=O)OC(C)(C)C)C(=O)OC(C)(C)C", "IC50": "26.6 µM (not active)"}
{"MOL_SMILES": "Nc1ccccc1Sc1ccc(C(F)(F)F)cc1[N+](=O)[O-]", "IC50": "2.55 µM (active)"}
{"MOL_SMILES": "CCOc1ccc(NC(=S)NC(=O)/C=C/c2ccc(C)cc2)c([N+](=O)[O-])c1", "IC50": "> 50 µM (not active)"}
{"MOL_SMILES": "O=[N+]([O-])c1cccc(/C=N\\N=C2c3ccccc3-c3ccccc32)c1O", "IC50": "< 0.4 µM (not active)"}
{"MOL_SMILES": "COc1ccccc1NC(=O)COC(=O)C12CC3CC(CC(Cl)(C3)C1)C2", "IC50": "13 µM (not active)"}
{"MOL_SMILES": "Cc1ccccc1NC(=O)Cn1c(=O)n(Cc2ccccc2)c(=O)c2c(C)c(C)sc21", "IC50": "15 µM (not active)"}
{"MOL_SMILES": "CC(C)Cn1c(N)c(C(=O)COC(=O)c2ccc(Cl)cc2)c(=O)n(C)c1=O", "IC50": "2.21 µM (active)"}
{"MOL_SMILES": "Cc1ccc(N(CCCCN2C(=O)c3ccccc3C2=O)C(=O)c2ccc(Cl)s2)cc1", "IC50": "2.83 µM (not active)"}
{"MOL_SMILES": "CCn1cnc2c1c(=O)n(CC(=O)Nc1ccc3c(c1)OC(F)(F)O3)c(=O)n2Cc1ccccc1", "IC50": "< 0.4 µM (not active)"}

* * *

In this section, each of the molecules is paired with its reported IC50.
- MEASURED_TARGET: Estrogen receptor beta (Homo sapiens, UniProt Q92731);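 also: recombinant ER-beta bound to coactivator SRC1 peptide in presence of estradiol agonist; inhibitors block coactivator peptide binding and lower the FRET signal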
- Sequence (Q92731 whole entry): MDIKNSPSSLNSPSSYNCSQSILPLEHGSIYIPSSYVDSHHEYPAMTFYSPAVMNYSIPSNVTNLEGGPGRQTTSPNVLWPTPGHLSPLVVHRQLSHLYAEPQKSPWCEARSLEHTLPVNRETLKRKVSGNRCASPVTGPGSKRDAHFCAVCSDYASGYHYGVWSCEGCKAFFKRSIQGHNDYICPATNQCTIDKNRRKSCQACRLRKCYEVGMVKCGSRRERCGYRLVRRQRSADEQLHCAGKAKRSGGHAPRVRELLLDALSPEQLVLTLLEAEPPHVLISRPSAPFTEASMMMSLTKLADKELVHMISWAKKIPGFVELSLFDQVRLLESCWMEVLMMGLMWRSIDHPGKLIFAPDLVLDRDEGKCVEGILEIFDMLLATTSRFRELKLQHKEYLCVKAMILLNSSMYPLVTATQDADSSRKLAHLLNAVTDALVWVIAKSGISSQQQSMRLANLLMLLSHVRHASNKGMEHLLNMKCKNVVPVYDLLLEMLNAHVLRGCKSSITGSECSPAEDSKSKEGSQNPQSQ
The source made the active and inactive calls.
RESULT_TYPE: IC50

{"MOLECULE": "Cc1ccc(C(=O)Nc2nc(-c3cccnc3)cs2)o1", "MEASURED_TARGET": "Estrogen receptor beta (Homo sapiens, UniProt Q92731)", "RESULT_TYPE": "IC50", "VALUE_OBSERVED": "21.2 µM (active)"}
{"MOLECULE": "CCOC(=O)CCC(NC(=O)c1ccc(NCN2C(=O)CCC2=O)cc1)C(=O)OCC (stereo unspecified)", "MEASURED_TARGET": "Estrogen receptor beta (Homo sapiens, UniProt Q92731)", "RESULT_TYPE": "IC50", "VALUE_OBSERVED": "> 50 µM (not active)"}
{"MOLECULE": "O=C(NCc1ccco1)C1(S(=O)(=O)c2ccc(Cl)cc2)CC1", "MEASURED_TARGET": "Estrogen receptor beta (Homo sapiens, UniProt Q92731)", "RESULT_TYPE": "IC50", "VALUE_OBSERVED": "> 50 µM (not active)"}
{"MOLECULE": "O=C(Nc1cccc2cccc(NC(=O)c3ccco3)c12)c1ccco1", "MEASURED_TARGET": "Estrogen receptor beta (Homo sapiens, UniProt Q92731)", "RESULT_TYPE": "IC50", "VALUE_OBSERVED": "15.5 µM (active)"}
{"MOLECULE": "O=C(Cc1coc2cc3c(cc12)CCC3)OCc1cc(=O)n2c(n1)sc1ccccc12", "MEASURED_TARGET": "Estrogen receptor beta (Homo sapiens, UniProt Q92731)", "RESULT_TYPE": "IC50", "VALUE_OBSERVED": "3.05 µM (active)"}
{"MOLECULE": "COc1ccccc1-c1nnc2sc(-c3cnccn3)nn12", "MEASURED_TARGET": "Estrogen receptor beta (Homo sapiens, UniProt Q92731)", "RESULT_TYPE": "IC50", "VALUE_OBSERVED": "4.15 µM (active)"}

* * *

- MEASURED_TARGET: Paired box protein Pax-8 (Homo sapiens)
- Sequence (Q06710 whole entry): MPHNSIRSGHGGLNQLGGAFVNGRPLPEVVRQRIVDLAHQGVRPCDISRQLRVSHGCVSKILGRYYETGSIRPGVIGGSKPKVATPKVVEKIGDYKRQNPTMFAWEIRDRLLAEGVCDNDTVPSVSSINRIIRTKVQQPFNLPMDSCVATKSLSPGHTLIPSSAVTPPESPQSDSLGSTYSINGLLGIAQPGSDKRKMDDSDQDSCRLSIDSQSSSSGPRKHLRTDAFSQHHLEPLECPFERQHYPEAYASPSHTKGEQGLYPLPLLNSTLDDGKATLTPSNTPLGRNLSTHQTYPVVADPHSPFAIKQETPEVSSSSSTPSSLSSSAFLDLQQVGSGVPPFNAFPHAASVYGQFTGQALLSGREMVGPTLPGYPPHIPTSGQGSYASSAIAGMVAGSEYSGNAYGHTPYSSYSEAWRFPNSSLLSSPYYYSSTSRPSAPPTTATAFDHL
- ASSAY_REMARKS: inhibitors of PAX8-driven TPO luciferase reporter, dose response, RMG-I cells, cherry-pick (AID 687027);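 also: luciferase reporter driven by Pax8 target thyroperoxidase promoter measured by SteadyGlo luminescence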
- Assay type: functional, cell-based
The source made the active and inactive calls.
Overview of recorded AC50 for various molecules
RESULT_TYPE: AC50

{"MOLECULE": "COC(=O)c1ccccc1-c1c2ccc(=N)cc-2oc2cc(N)ccc12", "VALUE_OBSERVED": "1.41 µM (active)"}
{"MOLECULE": "O=C(NCCc1ccccc1F)c1ccc2c(c1)OCCO2", "VALUE_OBSERVED": "2.18 µM (active)"}
{"MOLECULE": "CC(C)(C)OC(=O)NCCCC[C@H](NC(=O)c1[nH]cnc1C(=O)Nc1ccc(CNC(=O)OC(C)(C)C)cc1)C(=O)OC(C)(C)C", "VALUE_OBSERVED": "4.41 µM (active)"}
{"MOLECULE": "C=C1CC(COc2ccc3c(C)c(Cl)c(=O)oc3c2)(c2ccccc2)OC1=O (stereo unspecified)", "VALUE_OBSERVED": "5.9 µM (active)"}
{"MOLECULE": "C[C@@H]1CCCCO[C@@H](CN(C)Cc2ccc(Cl)c(Cl)c2)[C@H](C)CN([C@@H](C)CO)C(=O)c2cc(NC(=O)Nc3ccccc3)ccc2O1", "VALUE_OBSERVED": "11.6 µM (active)"}
{"MOLECULE": "O=C(Nc1ccccc1)NN(C(=O)CCl)c1ccccc1", "VALUE_OBSERVED": "4.57 µM (active)"}

* * *

- MEASURED_TARGET: Calpain-2 catalytic subunit (Sus scrofa)
- ASSAY_REMARKS: pig calpain II inhibitor potency, dose response, biochemical, fluorogenic peptide substrate (AID 1420)
- Format: functional
Activity calls are given as the source filed them.

{"MOL_SMILES": "Cc1ccc(-c2[nH]ncc2/C=N/n2c(COc3ccccc3C)nc3ccccc3c2=O)cc1", "IC50": "28 µM (not active)"}
{"MOL_SMILES": "CC(C)N(C(=O)COC(=O)c1ccc(O)cc1)C(C)C", "IC50": "18.7 µM (not active)"}
{"MOL_SMILES": "CCN(CC)c1ccc(C(=O)NNC(=O)CCl)cc1", "IC50": "9.84 µM (active)"}

* * *

- ASSAY_REMARKS: NIH-3T3 fibroblast cytotoxicity, dose response, cytotoxicity control, cell-based, fluorescence, Alamar Blue, secondary assay (AID 2327);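 also: NIH-3T3 mouse fibroblasts cultured with fluconazole at 8 µg/mL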
- Format: functional
Where a name gives a salt, the structure may show the parent alone. The source made the active and inactive calls.

{"MOLECULE": "CCOC(=O)c1ccc(NC(=O)Cn2ncc(Cl)c(Cl)c2=O)cc1", "EC50": "2.69 µM (inconclusive)"}
{"MOLECULE": "CC(C)CCOC(=O)C[N+](C)(C)CCOC1CC2CCC1(C)C2(C)C (stereo unspecified)", "EC50": "> 160 µM (inactive)"}
{"MOLECULE": "CCCOc1cccc(-c2cc(C(=O)NN=C(S)NCC)c3ccccc3n2)c1", "EC50": "> 160 µM (inactive)"}
{"MOLECULE": "CC(=O)[C@]1(O)Cc2c(O)c3c(c(O)c2[C@@H](O[C@H]2C[C@H](N)[C@H](O)[C@H](C)O2)C1)C(=O)c1ccccc1C3=O [IDARUBICIN HYDROCHLORIDE]", "EC50": "0.178 µM (inconclusive)"}
{"MOLECULE": "O=C(Nc1nc(-c2ccccn2)cs1)c1ccc(Br)s1", "EC50": "> 160 µM (inactive)"}
{"MOLECULE": "CC(C)N1CCc2c(sc(NC(=O)c3nc4ccccc4s3)c2C(N)=O)C1", "EC50": "> 150 µM (inactive)"}

* * *

As shown below, each of these compounds has a reported IC50 value.
- MEASURED_TARGET: Mannose-6-phosphate isomerase (Homo sapiens, UniProt P34949)
- Sequence (P34949 whole entry): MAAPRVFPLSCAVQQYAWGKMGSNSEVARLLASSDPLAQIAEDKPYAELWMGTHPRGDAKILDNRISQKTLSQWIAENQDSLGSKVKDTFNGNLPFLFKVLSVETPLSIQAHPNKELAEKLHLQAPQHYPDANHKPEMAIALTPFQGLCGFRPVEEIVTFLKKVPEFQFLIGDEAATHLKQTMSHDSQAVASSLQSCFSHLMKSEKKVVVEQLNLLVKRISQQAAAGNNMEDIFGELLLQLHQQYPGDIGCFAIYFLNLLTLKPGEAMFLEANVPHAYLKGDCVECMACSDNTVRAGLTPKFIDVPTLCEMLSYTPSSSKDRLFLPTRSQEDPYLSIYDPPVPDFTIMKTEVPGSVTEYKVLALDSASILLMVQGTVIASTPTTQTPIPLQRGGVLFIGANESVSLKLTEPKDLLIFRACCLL
- ASSAY_REMARKS: human PMI inhibitors, high substrate, primary screen, biochemical, fluorescence intensity, high mannose 6-phosphate (AID 1220)
Calls of active or inactive are those of the source.

{"COMPOUND": "COCC/N=c1\\scc(-c2ccco2)n1/N=C/c1ccc(O)c(O)c1O", "MEASURED_TARGET": "Mannose-6-phosphate isomerase (Homo sapiens, UniProt P34949)", "IC50": "32 µM (active)"}
{"COMPOUND": "COC(=O)C1=C(C(=O)OC)SC(=C2C(=S)C(C)(C)N(C(=O)C3CC3)c3ccccc32)S1", "MEASURED_TARGET": "Mannose-6-phosphate isomerase (Homo sapiens, UniProt P34949)", "IC50": "6.47 µM (active)"}
{"COMPOUND": "N#Cc1c(NCCO)nc(NCc2ccccc2)c2c1CCN(Cc1ccccc1)C2", "MEASURED_TARGET": "Mannose-6-phosphate isomerase (Homo sapiens, UniProt P34949)", "IC50": "> 50 µM (not active)"}
{"COMPOUND": "CCOC(=O)CNCCC(=O)c1ccc(Br)cc1", "MEASURED_TARGET": "Mannose-6-phosphate isomerase (Homo sapiens, UniProt P34949)", "IC50": "> 50 µM (not active)"}
{"COMPOUND": "Oc1ccc(/C=N/Nc2cc(N3CCCC3)nc(N3CCCC3)n2)cc1O", "MEASURED_TARGET": "Mannose-6-phosphate isomerase (Homo sapiens, UniProt P34949)", "IC50": "> 50 µM (not active)"}
{"COMPOUND": "COc1ccc(C(c2sc3nc(C)nn3c2O)N2CCc3ccccc3C2)cc1 (stereo unspecified)", "MEASURED_TARGET": "Mannose-6-phosphate isomerase (Homo sapiens, UniProt P34949)", "IC50": "9.88 µM (active)"}

Taken from ChEMBL document CHEMBL1201862.
